- assay-system: Potassium voltage-gated channel subfamily KQT member 2 (Rattus norvegicus) (UniProt O88943)
- Sequence (O88943 whole entry, looked up): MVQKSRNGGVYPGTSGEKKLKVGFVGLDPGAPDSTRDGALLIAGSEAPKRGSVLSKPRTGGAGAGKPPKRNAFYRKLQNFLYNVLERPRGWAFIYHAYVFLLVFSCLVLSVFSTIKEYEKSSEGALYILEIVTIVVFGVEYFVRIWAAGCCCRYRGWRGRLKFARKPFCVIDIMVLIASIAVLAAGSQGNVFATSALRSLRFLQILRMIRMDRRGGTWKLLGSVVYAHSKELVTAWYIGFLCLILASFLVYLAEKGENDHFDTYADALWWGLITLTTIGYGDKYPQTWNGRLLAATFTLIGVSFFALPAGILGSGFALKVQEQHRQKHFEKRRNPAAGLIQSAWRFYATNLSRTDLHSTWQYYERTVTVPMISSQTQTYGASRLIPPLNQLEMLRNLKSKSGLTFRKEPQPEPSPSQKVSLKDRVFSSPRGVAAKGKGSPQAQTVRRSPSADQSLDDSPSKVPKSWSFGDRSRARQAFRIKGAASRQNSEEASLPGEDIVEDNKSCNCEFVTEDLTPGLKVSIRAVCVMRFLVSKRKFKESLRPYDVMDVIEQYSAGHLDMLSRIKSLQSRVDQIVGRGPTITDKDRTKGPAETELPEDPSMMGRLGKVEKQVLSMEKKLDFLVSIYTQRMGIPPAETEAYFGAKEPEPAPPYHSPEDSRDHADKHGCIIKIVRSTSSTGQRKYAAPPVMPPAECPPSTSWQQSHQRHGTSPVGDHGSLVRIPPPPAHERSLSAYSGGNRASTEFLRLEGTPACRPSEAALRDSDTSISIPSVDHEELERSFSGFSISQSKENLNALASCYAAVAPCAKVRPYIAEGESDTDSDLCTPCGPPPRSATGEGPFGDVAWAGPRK
- run-description: KCNQ2 potentiation in CHO cells – cell-based, FluxOR thallium flux, counter-screen for hERG block protector project, confirmation (AID 1942)
- cond: FluxOR thallium flux fluorescence, at 10 µM
The campaign covered roughly 2,400 compounds. About 580 (24%) were called active.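 Rule for the calls: active = activity change at or above the mean plus 3 SD of buffer wells without dofetilide, per plate; inactive = the rest.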 Not all results are given here.
Labels: active, inactive

compound | label-class
Brc1ccc(-c2csc(N3CCCCCC3)n2)cc1 | inactive
CCCCNC(=S)NC(=O)c1ccc([N+](=O)[O-])cc1 | active
COc1ccc(-n2c(O)c(/C=C3\C=Nc4ccccc43)c(=O)[nH]c2=O)cc1 | inactive
O=C(NC1CCN(c2ncccn2)CC1)c1c(F)cccc1F | inactive
Cc1ccc(Nc2cc(C)nn2-c2nc(C)cc(=O)[nH]2)cc1 | active
O=C(O)Cc1cc(I)c(Oc2ccc(O)c(I)c2)c(I)c1 | active
CCCCCC(=O)NNC(=S)NC(=O)c1ccc([N+](=O)[O-])cc1 | inactive
O=C(c1csc(Nc2ccccc2Cl)n1)N1CCCC1 | inactive
O=C(NC(=S)Nc1cccc([N+](=O)[O-])c1)c1ccco1 | inactive
CCNC(=O)NC1c2ccccc2CSc2ccccc21 (centres undefined) | inactive
CCCCn1c(-c2csc(C(C)C)c2)n[nH]c1=S | active
S=c1[nH]nc(-c2ccc(Cl)cc2)n1Cc1ccccc1 | inactive
CCOC(=O)N/N=C\c1ccc(-c2cc(Cl)ccc2Cl)o1 | inactive
CC(=O)NCCc1nc2cc(NC(=O)c3ccc(Cl)cc3)ccc2n1C | inactive
Cc1ccc(N2C(=O)c3ccccc3C2(O)c2ncc[nH]2)cc1 (centres undefined) | inactive
O=S(=O)(Nc1ccc(Cc2ccncc2)cc1)c1ccc(Cl)c(Cl)c1 | inactive
O=C(Nc1cccc(N=Cc2cc(Cl)cc(Br)c2O)c1)c1ccco1 | active
Cc1cccc(N=Cc2cc(Br)cc(Cl)c2O)c1 | active
CC(C)CSC1=NSC2=NC(=O)/C(=C\c3ccccc3)C(=N)N12 | active
Cc1ccc(Nc2nc(C)cs2)cc1 | inactive
CCC(=O)Nc1ccc(C(=O)NNC(=O)c2cc([N+](=O)[O-])cc([N+](=O)[O-])c2)cc1 | inactive
CCOC(=O)CSc1nnc(NC(=O)c2ccc3c(c2)OCO3)s1 | inactive
Oc1c(Cl)cc(Cl)cc1C=Nc1ccc(Br)cc1 | active
CN(C(=O)c1cnccn1)c1nnc(-c2cnccn2)s1 | inactive
